Entries annotated with measured EC50
- tested-system: UniProt:Q12931
- Sequence (Q12931 60-704): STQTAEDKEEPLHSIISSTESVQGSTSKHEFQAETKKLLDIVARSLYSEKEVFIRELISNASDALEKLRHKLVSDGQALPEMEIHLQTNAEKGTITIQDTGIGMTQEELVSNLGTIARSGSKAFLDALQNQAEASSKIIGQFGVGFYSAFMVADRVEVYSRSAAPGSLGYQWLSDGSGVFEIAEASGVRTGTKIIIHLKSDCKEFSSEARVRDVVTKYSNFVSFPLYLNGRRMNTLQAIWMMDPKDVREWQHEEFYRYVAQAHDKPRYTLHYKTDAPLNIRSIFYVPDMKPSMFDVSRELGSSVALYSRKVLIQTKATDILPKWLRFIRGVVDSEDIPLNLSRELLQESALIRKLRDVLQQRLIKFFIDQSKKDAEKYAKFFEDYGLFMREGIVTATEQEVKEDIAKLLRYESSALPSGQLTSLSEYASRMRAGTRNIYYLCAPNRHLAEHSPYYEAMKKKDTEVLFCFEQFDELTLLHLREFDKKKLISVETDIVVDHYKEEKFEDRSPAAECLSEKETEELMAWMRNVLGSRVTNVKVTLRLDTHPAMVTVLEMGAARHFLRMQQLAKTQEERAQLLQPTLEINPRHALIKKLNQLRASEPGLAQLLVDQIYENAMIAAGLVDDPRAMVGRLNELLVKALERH
- test-description: Malachite green phosphate assay of TRAP1 ATPase activity
- Assay type: biochemical
- condition-label: TRAP1 ATPase activation, 150 nM Trap1, 20 μM ATP, geometric mean; read-out: Malachite Green Fluor DRC: GeoMean EC50
test-readout: EC50

given_smiles=COc1ccc(NC(=O)c2ncco2)cc1S(=O)(=O)N(CCCCCC[P+](c1ccccc1)(c1ccccc1)c1ccccc1)c1ccc(Br)cc1 experimental_result="< 10 µM"
given_smiles=CCOC(=O)CCCCCN(c1ccc(Br)cc1)S(=O)(=O)c1cc(NC(=O)c2ncco2)ccc1OC experimental_result="< 10 µM"
given_smiles=CC1(C)CCN(S(=O)(=O)c2cccc(NC(=O)c3cnc(-c4ccccc4)[nH]3)c2)c2ccc(Cl)cc21 experimental_result="20 to 100 µM"
given_smiles=COc1ccc(NC(=O)c2cnccc2C(C)C)cc1S(=O)(=O)Nc1ccc(Br)cc1 experimental_result="20 to 100 µM"
given_smiles=COc1ccc(NC(=O)c2cnc[nH]2)cc1S(=O)(=O)N(CCOCCOCCBr)c1ccc(Br)cc1 experimental_result="< 10 µM"
given_smiles=COc1ccc(NC(=O)c2cnc(-c3ccccc3)[nH]2)cc1S(=O)(=O)Nc1ccc(N=[N+]=[N-])cc1 experimental_result="< 10 µM"
given_smiles=COc1ccc(NC(=O)c2cnc[nH]2)cc1S(=O)(=O)N(CCOCCOCCOCCN)c1ccc(Br)cc1 experimental_result="20 to 100 µM"
given_smiles=COc1ccc(NC(=O)c2cnc(C(F)(F)F)[nH]2)cc1S(=O)(=O)Nc1ccc(F)cc1C experimental_result="20 to 100 µM"
given_smiles=Cc1ncoc1C(=O)Nc1cccc(S(=O)(=O)N(c2ccc(Cl)cc2)C(C)C)c1 experimental_result="10 to 20 µM"
given_smiles=COc1ccc(NC(=O)c2cnc(-c3ccccc3)[nH]2)cc1S(=O)(=O)N(CCOCCOCCOCCN)c1ccc(Br)cc1 experimental_result="20 to 100 µM"
given_smiles=COc1ccc(-c2ncc(C(=O)Nc3ccc(OC)c(S(=O)(=O)Nc4ccc(Br)cc4)c3)[nH]2)cc1 experimental_result="< 10 µM"
given_smiles=COc1ccc(NC(=O)c2nc(C(F)(F)F)cs2)cc1S(=O)(=O)Nc1ccc(Br)cc1 experimental_result="20 to 100 µM"
given_smiles=COc1ccc(NC(=O)c2cnc(-c3ccccc3)o2)cc1S(=O)(=O)Nc1c(C)cccc1C experimental_result="< 10 µM"
given_smiles=COc1ccc(NC(=O)c2ncco2)cc1S(=O)(=O)Nc1ccc(C)cc1 experimental_result="20 to 100 µM"
given_smiles=CCc1ccc(NC(=O)c2nnc(-c3ccccc3)[nH]2)cc1S(=O)(=O)Nc1ccc(Cl)cc1 experimental_result="10 to 20 µM"
given_smiles=COc1ccc(NC(=O)c2cnc(C(F)(F)F)[nH]2)cc1S(=O)(=O)N1Cc2cccc(F)c2C1 experimental_result="10 to 20 µM"
given_smiles=CN(c1ccc(Br)cc1)S(=O)(=O)c1cc(NC(=O)c2cnc[nH]2)ccc1OCCCCCCO experimental_result="20 to 100 µM"
given_smiles=COc1ccc(NC(=O)c2nc(Br)ccc2C)cc1S(=O)(=O)Nc1ccc(Cl)cc1 experimental_result="10 to 20 µM"
given_smiles=O=C(Nc1ccc(F)c(S(=O)(=O)Nc2ccc(Br)cc2)c1)c1cnc(C(F)(F)F)[nH]1 experimental_result="20 to 100 µM"
given_smiles=COc1ccc(NC(=O)c2cc3sccc3s2)cc1S(=O)(=O)Nc1c(C)cccc1C experimental_result="< 10 µM"
given_smiles=COc1ccc(NC(=O)c2cnc(-c3ccccc3)[nH]2)cc1S(=O)(=O)Nc1ccc(F)cc1 experimental_result="< 10 µM"
given_smiles=COc1ccc(NC(=O)c2cnc(C(F)(F)F)[nH]2)cc1S(=O)(=O)N(CCCCCC(=O)O)c1ccc(Br)cc1 experimental_result="10 to 20 µM"
given_smiles=O=C(Nc1cccc(S(=O)(=O)Nc2ccc(Br)cc2)c1)c1cnc(-c2ccccc2)[nH]1 experimental_result="10 to 20 µM"
given_smiles=COc1ccc(NC(=S)c2ncco2)cc1S(=O)(=O)Nc1ccc(Cl)cc1 experimental_result="20 to 100 µM"
given_smiles=COc1ccc(NC(=O)c2ccc(-c3ccccc3)o2)cc1S(=O)(=O)Nc1ccc(Cl)cc1 experimental_result="20 to 100 µM"
given_smiles=COc1ccc(NC(=O)c2cnc[nH]2)cc1S(=O)(=O)N(CCOCCOCC[P+](c1ccccc1)(c1ccccc1)c1ccccc1)c1ccc(Br)cc1 experimental_result="< 10 µM"
given_smiles=CCc1ccc(NC(=O)c2cnccc2C)cc1S(=O)(=O)Nc1ccc(C)cc1 experimental_result="10 to 20 µM"
given_smiles=COc1ccc(NC(=O)c2cn(C)c(C(F)(F)F)n2)cc1S(=O)(=O)Nc1ccc(Br)cc1 experimental_result="20 to 100 µM"
given_smiles=COc1ccc(NC(=S)c2ncc(-c3ccccc3)o2)cc1S(=O)(=O)Nc1ccc(Cl)cc1 experimental_result="10 to 20 µM"
given_smiles=Cc1ccc(NS(=O)(=O)c2cc(NC(=O)c3cnc(C(F)(F)F)[nH]3)ccc2F)cc1 experimental_result="10 to 20 µM"
